target.system: GABA-A receptor; anion channel (Bos taurus) (UniProt P10063+P08220+P20237+P08219+P10064+P22300)
procedure.text: Inhibition of [3H]- flunitrazepam binding to GABA-A central benzodiazepine receptor of bovine cortical membranes at 10 uM
Where inhibition equals or exceeds 50%, the correct label is T; where it does not, the label is F.

Is it the case that COc1ccc(CNC(=O)C(=O)c2c[nH]c3ccccc23)cc1 has inhibition reaching or exceeding 50%?
T

Is it the case that COc1ccc(CNC(=O)C(=O)c2c[nH]c3ccc([N+](=O)[O-])cc23)cc1 has inhibition reaching or exceeding 50%?
T

Is it the case that COc1ccc(NC(=O)C(=O)c2c[nH]c3ccccc23)cc1 has inhibition reaching or exceeding 50%?
F

Is it the case that O=C(Nc1ccc(O)cc1)C(=O)c1c[nH]c2ccccc12 has inhibition reaching or exceeding 50%?
T

Is it the case that O=C(NCc1cccc(O)c1)C(=O)c1c[nH]c2ccc(Cl)cc12 has inhibition reaching or exceeding 50%?
T

Is it the case that O=C(NCc1cccc(O)c1)C(=O)c1c[nH]c2ccccc12 has inhibition reaching or exceeding 50%?
T

Is it the case that O=C(NCCCc1ccccc1)C(=O)c1c[nH]c2ccc([N+](=O)[O-])cc12 has inhibition reaching or exceeding 50%?
T

Is it the case that Cn1cc(C(=O)C(=O)NCc2cccc(O)c2)c2ccccc21 has inhibition reaching or exceeding 50%?
F

Is it the case that O=C(NCc1ccc(O)cc1)C(=O)c1c[nH]c2ccc([N+](=O)[O-])cc12 has inhibition reaching or exceeding 50%?
T

Is it the case that O=C(NCc1cccc(O)c1)C(=O)c1c[nH]c2ccc([N+](=O)[O-])cc12 has inhibition reaching or exceeding 50%?
T

Is it the case that O=C(Nc1ccccc1)C(=O)c1c[nH]c2ccc(Cl)cc12 has inhibition reaching or exceeding 50%?
F

Is it the case that O=C(Nc1ccccc1)C(=O)c1c[nH]c2ccccc12 has inhibition reaching or exceeding 50%?
F

Is it the case that O=C(NCc1ccccc1)C(=O)c1c[nH]c2ccc(Cl)cc12 has inhibition reaching or exceeding 50%?
F

Is it the case that COc1ccc(NC(=O)C(=O)c2c[nH]c3ccc(Cl)cc23)cc1 has inhibition reaching or exceeding 50%?
F

Is it the case that O=C(NCCCc1ccccc1)C(=O)c1c[nH]c2ccc(Cl)cc12 has inhibition reaching or exceeding 50%?
F

Is it the case that COc1ccc(NC(=O)C(=O)c2c[nH]c3ccc([N+](=O)[O-])cc23)cc1 has inhibition reaching or exceeding 50%?
F

----------
target.system: GABA-A receptor; anion channel (Bos taurus) (UniProt P10063+P08220+P20237+P08219+P10064+P22300)
procedure.text: Gamma AminoButyric Acid(GABA) ratio is the Ki without GABA / Ki with GABA
Type: protein-complex assay
readout.name: GABA ratio

# lookup: GABA ratio of COc1cccc(CNC(=O)C(=O)c2c[nH]c3ccc(Cl)cc23)c1
0.79

# lookup: GABA ratio of O=C(NCc1ccc(O)cc1)C(=O)c1c[nH]c2ccc([N+](=O)[O-])cc12
1.05

# lookup: GABA ratio of O=C(NCc1ccccc1)C(=O)c1c[nH]c2ccc([N+](=O)[O-])cc12
1

# lookup: GABA ratio of O=C(NCc1ccccc1)C(=O)c1c[nH]c2ccc(Cl)cc12
0.95

# lookup: GABA ratio of COc1ccc(CNC(=O)C(=O)c2c[nH]c3ccc([N+](=O)[O-])cc23)cc1
1.06

# lookup: GABA ratio of O=C(NCc1ccc(O)c(O)c1)C(=O)c1c[nH]c2ccccc12
1.56

# lookup: GABA ratio of COc1ccc(CNC(=O)C(=O)c2c[nH]c3ccc(Cl)cc23)cc1OC
0.82

# lookup: GABA ratio of COc1cccc(CNC(=O)C(=O)c2c[nH]c3ccccc23)c1
0.74

# lookup: GABA ratio of O=C(NCc1ccc(O)c(O)c1)C(=O)c1c[nH]c2ccc(Cl)cc12
1.33

# lookup: GABA ratio of O=C(NCCCc1ccccc1)C(=O)c1c[nH]c2ccccc12
1

# lookup: GABA ratio of COc1ccc(CNC(=O)C(=O)c2c[nH]c3ccc([N+](=O)[O-])cc23)cc1OC
1

# lookup: GABA ratio of O=C(NCc1ccccc1)C(=O)c1c[nH]c2ccccc12
0.87

Source listed as ChEMBL document CHEMBL1129605.
